Below: a set of entries, each annotated with reported IC50.
# tgt: IDH1R132C (Homo sapiens (Human), UniProt O75874, R132C)
# Sequence (O75874 whole entry R132C): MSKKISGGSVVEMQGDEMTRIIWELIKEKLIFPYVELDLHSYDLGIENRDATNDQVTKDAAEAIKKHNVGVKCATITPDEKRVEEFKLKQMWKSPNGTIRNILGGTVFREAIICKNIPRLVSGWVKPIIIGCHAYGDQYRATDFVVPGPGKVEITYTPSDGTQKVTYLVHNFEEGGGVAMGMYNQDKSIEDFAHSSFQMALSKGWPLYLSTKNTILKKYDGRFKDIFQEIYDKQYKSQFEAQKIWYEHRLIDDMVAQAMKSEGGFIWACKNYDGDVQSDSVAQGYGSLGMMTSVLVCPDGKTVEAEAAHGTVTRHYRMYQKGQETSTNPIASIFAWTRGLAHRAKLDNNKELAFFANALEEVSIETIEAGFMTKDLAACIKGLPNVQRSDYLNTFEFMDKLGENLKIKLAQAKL
# assay: Inhibitory activity against IDH1R132C enzyme (NADPH detection, WST-8)
# assay_conditions: 10 nM, residual NADPH detected with WST-8, read-out: Test Example 1 IDH1 R132C IC50

# compound, tgt, IC50 [nM]
measured = [
    ("CC(C)(C)c1onc(-c2c(Cl)cc(Cl)cc2Cl)c1C(=O)n1cc(F)c2c(/C=C/C(=O)O)cccc21 [Example 40]", "IDH1R132C (Homo sapiens (Human), UniProt O75874, R132C)", 159),
    ("Cc1cc(Cl)cc(Cl)c1-c1noc(C(C)(C)C)c1C(=O)n1ccc2c(/C=C/C(=O)O)cccc21 [Example 41]", "IDH1R132C (Homo sapiens (Human), UniProt O75874, R132C)", 280),
    ("COC1(c2onc(-c3c(F)cc(Cl)cc3Cl)c2C(=O)n2cc3c4c(cccc42)/C(=C/C(=O)O)CC3)CCC1 [Example 15]", "IDH1R132C (Homo sapiens (Human), UniProt O75874, R132C)", 106),
    ("C=Cc1ccc(-c2onc(-c3c(Cl)cc(Cl)cc3Cl)c2C(=O)n2ccc3c(/C=C/C(=O)O)cccc32)cn1 [Example 73]", "IDH1R132C (Homo sapiens (Human), UniProt O75874, R132C)", 208),
    ("CC1(c2onc(-c3c(Cl)cc(Cl)cc3Cl)c2C(=O)n2cc3c4c(cccc42)/C(=C/C(=O)O)CC3)CC(F)(F)C1 [Example 19]", "IDH1R132C (Homo sapiens (Human), UniProt O75874, R132C)", 169),
    ("C=CS(=O)(=O)N1CCN(c2onc(-c3c(Cl)cccc3Cl)c2C(=O)n2ccc3c(/C=C/C(=O)O)cccc32)CC1 [Example 149]", "IDH1R132C (Homo sapiens (Human), UniProt O75874, R132C)", 132),
    ("C=CC(=O)N1CCN(c2onc(-c3c(Cl)cccc3Cl)c2C(=O)n2ccc3c(/C=C/C(=O)O)cccc32)[C@H](C2CC2)C1 [Example 154]", "IDH1R132C (Homo sapiens (Human), UniProt O75874, R132C)", 235),
    ("C=CC(=O)N1CC2(CC2)N(c2onc(-c3c(F)cccc3Cl)c2C(=O)n2ccc3c(/C=C/C(=O)O)cccc32)C[C@H]1CC [Example 160]", "IDH1R132C (Homo sapiens (Human), UniProt O75874, R132C)", 81),
    ("C=CC(=O)N1CCC(c2onc(-c3ccc(Cl)c(F)c3Cl)c2C(=O)n2cc3c4c(cccc42)/C(=C/C(=O)O)CC3)CC1 [Example 130]", "IDH1R132C (Homo sapiens (Human), UniProt O75874, R132C)", 143),
    ("Cn1cc(C(=O)c2c(-c3c(Cl)cc(Cl)cc3Cl)noc2C2(C)CC2)c2cccc(/C=C/C(=O)O)c21 [Example 165]", "IDH1R132C (Homo sapiens (Human), UniProt O75874, R132C)", 81),
    ("Cc1cn(C(=O)c2c(-c3c(F)cc(Cl)cc3F)noc2C(C)(C)F)c2cccc(/C=C/C(=O)O)c12 [Example 54]", "IDH1R132C (Homo sapiens (Human), UniProt O75874, R132C)", 109),
    ("CC(C)(C)c1onc(-c2c(Cl)cccc2Cl)c1C(=O)n1ccc2c(/C=C/C(=O)O)cccc21 [Example 24]", "IDH1R132C (Homo sapiens (Human), UniProt O75874, R132C)", 182),
    ("C=CC(=O)N1CCC(c2noc(-c3c(Cl)cc(Cl)cc3Cl)c2C(=O)n2ccc3c(/C=C/C(=O)O)cccc32)CC1 [Example 132]", "IDH1R132C (Homo sapiens (Human), UniProt O75874, R132C)", 279),
    ("CC(C)(F)c1onc(-c2c(F)cc(Cl)cc2Cl)c1C(=O)n1cc2c3c(cccc31)/C(=C/C(=O)O)CC2 [Example 16]", "IDH1R132C (Homo sapiens (Human), UniProt O75874, R132C)", 107),
    ("COC1(c2onc(-c3c(Cl)cccc3Cl)c2C(=O)n2ccc3c(/C=C/C(=O)O)cccc32)COC1 [Example 76]", "IDH1R132C (Homo sapiens (Human), UniProt O75874, R132C)", 94),
    ("Cn1cc(C(=O)c2c(-c3c(Cl)cc(Cl)cc3Cl)noc2C(C)(C)C)c2ccc3ccc(C(=O)O)cc3c21 [Example 167]", "IDH1R132C (Homo sapiens (Human), UniProt O75874, R132C)", 196),
    ("Cc1cn(C(=O)c2c(-c3c(Cl)cc(Cl)cc3Cl)noc2C2(C(=O)N(C)C)CCC2)c2cccc(/C=C/C(=O)O)c12 [Example 89]", "IDH1R132C (Homo sapiens (Human), UniProt O75874, R132C)", 185),
    ("C=CC(=O)N1CCC(c2onc(-c3ccc(Cl)cc3Cl)c2C(=O)n2cc(C)c3c(/C=C/C(=O)O)cccc32)CC1 [Example 106]", "IDH1R132C (Homo sapiens (Human), UniProt O75874, R132C)", 149),
    ("C=CC(=O)N1CCN(c2onc(-c3c(Cl)cccc3Cl)c2C(=O)n2ccc3c(/C=C/C(=O)O)cccc32)[C@H](C)C1 [Example 141]", "IDH1R132C (Homo sapiens (Human), UniProt O75874, R132C)", 137),
    ("C=CC(=O)N1CCC(C)(c2onc(-c3c(Cl)cc(Cl)cc3Cl)c2C(=O)n2cc(C)c3c(/C=C/C(=O)O)cccc32)CC1 [Example 113]", "IDH1R132C (Homo sapiens (Human), UniProt O75874, R132C)", 104),
    ("C[C@@H]1CCC[C@H](C)N1c1onc(-c2c(Cl)cccc2Cl)c1C(=O)n1ccc2c(/C=C/C(=O)O)cccc21 [Example 137]", "IDH1R132C (Homo sapiens (Human), UniProt O75874, R132C)", 189),
    ("CC(C)(C)c1onc(-c2c(Cl)cccc2Br)c1C(=O)n1ccc2c(/C=C/C(=O)O)cccc21 [Example 39]", "IDH1R132C (Homo sapiens (Human), UniProt O75874, R132C)", 168),
    ("C=CC(=O)N1CCN(c2onc(-c3c(Cl)cc(Cl)cc3Cl)c2C(=O)n2ccc3c(/C=C/C(=O)O)cccc32)C[C@H]1C [Example 148]", "IDH1R132C (Homo sapiens (Human), UniProt O75874, R132C)", 225),
    ("C=CC(=O)N1CC2(CC2)N(c2onc(-c3c(Cl)cccc3Cl)c2C(=O)n2ccc3c(/C=C/C(=O)O)cccc32)C[C@H]1CC [Example 163]", "IDH1R132C (Homo sapiens (Human), UniProt O75874, R132C)", 98),
    ("CC(C)c1onc(-c2c(Cl)cc(Cl)cc2Cl)c1C(=O)n1ccc2c(/C=C/C(=O)O)cccc21 [Example 26]", "IDH1R132C (Homo sapiens (Human), UniProt O75874, R132C)", 253),
    ("Cc1cc(Cl)c(-c2noc(C(C)(C)F)c2C(=O)n2cc(C)c3c(/C=C/C(=O)O)cccc32)c(Cl)c1 [Example 56]", "IDH1R132C (Homo sapiens (Human), UniProt O75874, R132C)", 107),
    ("CC1(c2onc(-c3c(Cl)cc(Cl)cc3Cl)c2C(=O)n2ccc3c(/C=C/C(=O)O)ccnc32)COC1 [Example 9]", "IDH1R132C (Homo sapiens (Human), UniProt O75874, R132C)", 107),
]

###

# tgt: IDH1R132C (Homo sapiens (Human), UniProt O75874, R132C)
# assay: Inhibitory activity against IDH1R132C enzyme (NADPH detection, WST-8)
# assay_conditions: 10 nM, residual NADPH detected with WST-8, read-out: Test Example 1 IDH1 R132C IC50

# molecule, IC50 (µM)
rows = [
    ("Cc1cn(C(=O)c2c(-c3c(Cl)cc(Cl)cc3Cl)noc2C(C)(C)N(C)C)c2cccc(/C=C/C(=O)O)c12 [Example 91]", 0.12),
    ("C=CC(=O)N1CCC(c2onc(-c3ccc(Cl)cc3Cl)c2C(=O)n2cc3c4c(cccc42)/C(=C/C(=O)O)CC3)CC1 [Example 131]", 0.133),
    ("COC1(c2onc(-c3c(Cl)cc(Cl)cc3Cl)c2C(=O)n2ccc3c(/C=C/C(=O)O)cccc32)CCC1 [Example 74]", 0.175),
    ("Cc1cn(C(=O)c2c(-c3c(F)cc(Cl)cc3Cl)noc2C(C)(C)F)c2cccc(/C=C/C(=O)O)c12 [Example 47]", 0.098),
]

###

# tgt: IDH1R132C (Homo sapiens (Human), UniProt O75874, R132C)
# assay: Inhibitory activity against IDH1R132C enzyme (NADPH detection, WST-8)
# Format: biochemical
# assay_conditions: 10 nM, residual NADPH detected with WST-8, read-out: Test Example 1 IDH1 R132C IC50
pIC50: −log10 of the molar value.
Below: a set of entries, each annotated with reported pIC50.
observed_property: pIC50

# molecule, reported_measurement
data = [
    ("COC1(c2onc(-c3c(Cl)cc(Cl)cc3Cl)c2C(=O)n2cc(C)c3c(/C=C/C(=O)O)cccc32)CCC1", 6.79),
    ("C=CC(=O)N1CCC(c2onc(-c3c(C)cc(C)cc3C)c2C(=O)n2ccc3c(/C=C/C(=O)O)cccc32)CC1", 6.61),
    ("C=CC(=O)N1CCC(c2onc(-c3cc(F)c(Cl)cc3Cl)c2C(=O)n2cc3c4c(cccc42)/C(=C/C(=O)O)CC3)CC1", 7.04),
    ("C=CC(=O)N1CCC(c2onc(-c3c(C)cc(C)cc3C)c2C(=O)n2cc(C)c3c(/C=C/C(=O)O)cccc32)CC1", 7.09),
    ("C=CC(=O)N1CC2(CC2)N(c2onc(-c3c(F)cccc3Cl)c2C(=O)n2ccc3c(/C=C/C(=O)O)cccc32)C[C@H]1C", 6.78),
    ("CC(C)(F)c1onc(-c2c(F)cc(Cl)cc2Cl)c1C(=O)n1ccc2c(/C=C/C(=O)O)cccc21", 6.71),
    ("COC1(c2onc(-c3c(Cl)cc(Cl)cc3Cl)c2C(=O)n2cc(C)c3c(/C=C/C(=O)O)cccc32)COC1", 7.25),
    ("C=CC(=O)N1CC2(CC2)N(c2onc(-c3c(Cl)cccc3OC)c2C(=O)n2ccc3c(/C=C/C(=O)O)cccc32)C[C@H]1C", 6.75),
    ("C=CC(=O)N1CC2C(C1)C2c1onc(-c2c(Cl)cc(Cl)cc2Cl)c1C(=O)n1cc(C)c2c(/C=C/C(=O)O)cccc21 (centres unmarked)", 6.90),
    ("COC(C)(C)c1onc(-c2c(Cl)cc(Cl)cc2Cl)c1C(=O)n1ccc2c(/C=C/C(=O)O)cccc21", 7.24),
    ("Cc1cc(Cl)cc(C)c1-c1noc(C(C)(C)F)c1C(=O)n1cc(C)c2c(/C=C/C(=O)O)cccc21", 6.90),
    ("CC(C)(C)c1noc(-c2c(Cl)cc(Cl)cc2Cl)c1C(=O)n1ccc2c(/C=C/C(=O)O)cccc21", 6.44),
    ("CC(C)(F)c1onc(-c2c(Cl)cc(Cl)cc2Cl)c1C(=O)n1cc(Cl)c2c(/C=C/C(=O)O)cccc21", 6.91),
    ("C=CC(=O)N1CC2(CC2)N(c2onc(-c3c(Cl)cccc3OC)c2C(=O)n2ccc3c(/C=C/C(=O)O)cccc32)C[C@H]1CC", 7.01),
]

Attribution: patent US10040791B2
